// merged dataset of Kd values, system = Cyclin-dependent kinase 9 (Homo sapiens, UniProt P50750), multiple refs
Sequence (P50750 whole entry): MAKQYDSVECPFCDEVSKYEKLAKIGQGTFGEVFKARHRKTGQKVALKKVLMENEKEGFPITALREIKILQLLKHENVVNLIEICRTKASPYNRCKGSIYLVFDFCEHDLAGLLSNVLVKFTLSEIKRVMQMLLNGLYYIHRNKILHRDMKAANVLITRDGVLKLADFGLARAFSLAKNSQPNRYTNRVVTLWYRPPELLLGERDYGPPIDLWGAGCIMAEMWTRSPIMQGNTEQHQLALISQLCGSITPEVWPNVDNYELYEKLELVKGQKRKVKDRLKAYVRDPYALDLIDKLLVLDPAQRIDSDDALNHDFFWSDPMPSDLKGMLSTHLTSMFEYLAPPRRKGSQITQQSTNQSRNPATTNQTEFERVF
Readout type: Kd (nM)

Molecule: Cn1ncc(-c2nc(N[C@H]3CC[C@H](N)CC3)ncc2F)c1CC1CC1
Readout value: 5.4

(A) Cc1ccc([N+](=O)[O-])cc1S(=O)(=O)N(C)/N=C/c1cnc2ccc(Br)cn12
(B) O=C(CCCOc1ccc(CC(=O)Nc2cc(C3CCC3)[nH]n2)cc1)NCCCCNc1cccc2c1C(=O)N(C1CCC(=O)NC1=O)C2=O (stereo not drawn)
Thinking about recorded Kd values, which is higher, A or B ? Refer to your chosen entry by its label in the reply. B
(B: 1050 nM, A: 4.1 nM)
